# Test system: TK-10 renal
# METHOD_NOTES: NCI-60 one-dose screen, 48 h
# COND: 10 µM unless noted
Compounds without any hit were thinned out: in the full panel of roughly 83,000, 20% have a hit. Activity calls are given as the source filed them. Rule for the calls: active = growth percent below 10; inactive = the rest.
Outcome codes: active, inactive

>  <COMPOUND>
CO[C@H]1/C=C/O[C@@]2(C)Oc3c(C)c(O)c4c(c3C2=O)C(=O)C(/C=N/N(c2ccccc2)c2ccccc2)=C(NC(=O)/C(C)=C\C=C\[C@H](C)[C@H](O)[C@@H](C)[C@@H](O)[C@@H](C)[C@H](OC(C)=O)[C@@H]1C)C4=O

>  <ASSAY_SYSTEM>
TK-10 renal

>  <QUALITATIVE_LABEL>
active

$$$$
>  <COMPOUND>
COc1cc(/C=C/C(=O)c2cccc(-n3cc(-c4ccc(Cl)cc4)[nH]c3=O)c2)cc(OC)c1OC

>  <ASSAY_SYSTEM>
TK-10 renal

>  <QUALITATIVE_LABEL>
inactive

$$$$
>  <COMPOUND>
O=C1N(c2ccccc2)C(=S)N[C@]12[C@H](c1ccccc1)C1CCCN1[C@]21C(=O)NC2C=CC(Cl)=C[C@H]21 (some centres undefined)

>  <ASSAY_SYSTEM>
TK-10 renal

>  <QUALITATIVE_LABEL>
inactive

$$$$
>  <COMPOUND>
COc1ccc(Cn2cnc3cc(C(=O)Nc4cccc5ccccc45)ccc32)c(OC)c1

>  <ASSAY_SYSTEM>
TK-10 renal

>  <QUALITATIVE_LABEL>
inactive

$$$$
>  <COMPOUND>
Cc1csc(NC(=O)c2sc3nc(-c4cccs4)ccc3c2N)n1

>  <ASSAY_SYSTEM>
TK-10 renal

>  <QUALITATIVE_LABEL>
inactive

$$$$
>  <COMPOUND>
Clc1ccc(-c2cn(-c3ccccc3)c(-c3ccccc3)n2)cc1

>  <ASSAY_SYSTEM>
TK-10 renal

>  <QUALITATIVE_LABEL>
inactive

$$$$
>  <COMPOUND>
CCCCCCCC/C=C\CCCCCCCC(=O)Oc1cccc2cccnc12

>  <ASSAY_SYSTEM>
TK-10 renal

>  <QUALITATIVE_LABEL>
inactive

$$$$
>  <COMPOUND>
COc1ccc(-c2cncnc2N)cc1OC

>  <ASSAY_SYSTEM>
TK-10 renal

>  <QUALITATIVE_LABEL>
inactive

$$$$
>  <COMPOUND>
O=C1CSC(c2ccccc2O)N1c1nnc(Cn2cnnc2)o1 (centres undefined)

>  <ASSAY_SYSTEM>
TK-10 renal

>  <QUALITATIVE_LABEL>
inactive

$$$$

====

# Tested on: CCRF-CEM leukemia
# METHOD_NOTES: NCI-60 one-dose screen, 48 h
# COND: 10 µM unless noted
Compounds without any hit were thinned out: in the full panel of roughly 83,000, 20% have a hit. The source made the active and inactive calls. Rule for the calls: active = growth percent below 10; inactive = the rest.
Outcome codes: 1 for active, -1 for inactive

>  <SMILES_NOTATION>
COc1ccc(/C(C)=C(\c2ccc(Cl)cc2)c2ccc(OCCN3CCCCCC3)cc2)cc1F

>  <QUALITATIVE_LABEL>
-1

$$$$
>  <SMILES_NOTATION>
CC(=O)Nc1ccc2c(c1)Cc1c(F)cccc1-2

>  <QUALITATIVE_LABEL>
-1

$$$$
>  <SMILES_NOTATION>
NC(=O)c1c(NC(=O)c2ccccn2)sc2c1CCC(=O)C2

>  <QUALITATIVE_LABEL>
-1

$$$$
>  <SMILES_NOTATION>
COc1cc(/C=C/c2nc(Nc3ccc(S(=O)(=O)Nc4cc(C)on4)cc3)c3ccccc3n2)ccc1O

>  <QUALITATIVE_LABEL>
-1

$$$$
>  <SMILES_NOTATION>
Cc1cc(=O)[nH]c(N/N=C/c2cc(Br)ccc2O)n1

>  <QUALITATIVE_LABEL>
-1

$$$$
>  <SMILES_NOTATION>
CC(C)c1ccc(NC(=O)Cc2ccc(Nc3ncnc4cc(-c5cnn(CCN(C)C)c5)ccc34)cc2)cc1

>  <QUALITATIVE_LABEL>
1

$$$$
>  <SMILES_NOTATION>
COc1cc2c(cc1OC)-c1ccc3cc4c(cc3c1N(CCCn1ccnc1)C2)OCO4

>  <QUALITATIVE_LABEL>
1

$$$$
>  <SMILES_NOTATION>
N#Cc1c(-c2ccc(C(F)(F)F)cc2)cc(N2CC(O)C2)n2c1nc1ccccc12

>  <QUALITATIVE_LABEL>
-1

$$$$
>  <SMILES_NOTATION>
Cc1ccc(C)c2c1C(=O)OC2=O

>  <QUALITATIVE_LABEL>
-1

$$$$
>  <SMILES_NOTATION>
COc1cc(-c2cccc([N+](=O)[O-])c2)c(-c2nc(-c3ccccc3)c(-c3ccccc3)n2C2CC2)cc1OC

>  <QUALITATIVE_LABEL>
-1

$$$$
